# Test system: Enterococcus sp.
# assay-notes: in vitro antibacterial evaluation, MIC by broth dilution
# Assay type: cell-based
# study-conditions: broth dilution, 18 hours at 35° C.
Task for the reader: assign each of the following compounds its reported MIC Enterococcus faecalis (GC 4552).

Give recorded MIC Enterococcus faecalis (GC 4552). CC(c1ccccc1)C1NC(=O)CNC(=O)C(CO)NC(=O)C(C(O)C2CNC(=N)N2C2OC(CO)C(O)C(O)C2O)NC(=O)C(C(O)C2CNC(=N)N2)NC(=O)C(Cc2ccc(OC3OC(CO)C(OC4OC(CO)C(OCC=Cc5ccc(N(C)C)cc5)C(O)C4O)C(O)C3O)cc2)NC1=O (centres unmarked) [Example 243a]
32 µg/mL

Using the record for CC(c1ccccc1)C1NC(=O)CNC(=O)C(CO)NC(=O)C(CC2CNC(=N)N2C2OC(CO)C(O)C(O)C2O)NC(=O)C(CC2CNC(=N)N2)NC(=O)C(Cc2ccc(OC3OC(CO)C(OC4OC(COCc5ccc(OCc6ccccc6)cc5)C(O)C(O)C4O)C(O)C3O)cc2)NC1=O (centres unmarked) , state its measured MIC Enterococcus faecalis (GC 4552).
16 µg/mL

Specify MIC Enterococcus faecalis (GC 4552) for CC(c1ccccc1)C1NC(=O)CNC(=O)C(CO)NC(=O)C(C(O)C2CNC(=N)N2C2OC(CO)C(O)C(O)C2O)NC(=O)C(C(O)C2CNC(=N)N2)NC(=O)C(Cc2ccc(OC3OC(CO)C(OC4OC5COC6(CC7CCC6(C)C7(C)C)OC5C(O)C4O)C(O)C3O)cc2)NC1=O (centres unmarked) and stop.
1 µg/mL

Dear colleague, please send me the reported MIC Enterococcus faecalis (GC 4552) for COc1ccc2cc(C3OCC4OC(OC5C(CO)OC(Oc6ccc(CC7NC(=O)C(C(C)c8ccccc8)NC(=O)CNC(=O)C(CO)NC(=O)C(CC8CNC(=N)N8C8OC(CO)C(O)C(O)C8O)NC(=O)C(CC8CNC(=N)N8)NC7=O)cc6)C(O)C5O)C(O)C(O)C4O3)ccc2c1 (centres unmarked) when you can.
32 µg/mL

Supply MIC Enterococcus faecalis (GC 4552) value. Item: CC(C1CCCCC1)C1NC(=O)CNC(=O)C(CO)NC(=O)C(C(O)C2CNC(=N)N2C2OC(CO)C(O)C(O)C2O)NC(=O)C(C(O)C2CNC(=N)N2)NC(=O)C(Cc2ccc(OC3OC(CO)C(OC4OC5COC(c6ccccc6)OC5C(O)C4O)C(O)C3O)cc2)NC1=O (centres unmarked)
1 µg/mL

Fill in reported MIC Enterococcus faecalis (GC 4552) for this entry: COc1ccc2cc(COC3C(OC4C(CO)OC(Oc5ccc(CC6NC(=O)C(C(C)c7ccccc7)NC(=O)CNC(=O)C(CO)NC(=O)C(CC7CNC(=N)N7C7OC(CO)C(O)C(O)C7O)NC(=O)C(CC7CNC(=N)N7)NC6=O)cc5)C(O)C4O)OC(CO)C(O)C3O)ccc2c1 (centres unmarked) [Example 245c]
>128 µg/mL

Annotate the compound CC(c1ccccc1)C1NC(=O)CNC(=O)C(CO)NC(=O)C(C(O)C2CNC(=N)N2C2OC(CO)C(O)C3OC(C)(C)OC32)NC(=O)C(C(O)C2CNC(=N)N2)NC(=O)C(Cc2ccc(OC3OC(CO)C(OC4OC5COC(C)(C)OC5C5OC(C)(C)OC45)C4OC(C)(C)OC34)cc2)NC1=O (centres unmarked) [Example 229b] with its measured MIC Enterococcus faecalis (GC 4552).
>128 µg/mL

Return reported MIC Enterococcus faecalis (GC 4552). Input compound: CC(c1ccc(Cl)cc1)C1NC(=O)CNC(=O)C(CO)NC(=O)C(C(O)C2CNC(=N)N2C2OC(CO)C(O)C(O)C2O)NC(=O)C(C(O)C2CNC(=N)N2)NC(=O)C(Cc2ccc(OC3OC(CO)C(OC4OC5COC(C6CCCCC6)OC5C(O)C4O)C(O)C3O)cc2)NC1=O (centres unmarked)
1 µg/mL

Answer with the recorded MIC Enterococcus faecalis (GC 4552) of N=C1NCC(C(O)C2NC(=O)C(Cc3ccc(OC4OC(CO)C(OC5OC6COC(Cc7ccccc7)OC6C(O)C5O)C(O)C4O)cc3)NC(=O)C(CC3CCCCC3)NC(=O)CNC(=O)C(CO)NC(=O)C(C(O)C3CNC(=N)N3C3OC(CO)C(O)C(O)C3O)NC2=O)N1 (centres unmarked) only.
2 µg/mL

Retrieve MIC Enterococcus faecalis (GC 4552) measured for COc1ccc(COCC2OC(OC3C(CO)OC(Oc4ccc(CC5NC(=O)C(C(C)c6ccccc6)NC(=O)CNC(=O)C(CO)NC(=O)C(C(O)C6CNC(=N)N6C6OC(CO)C(O)C(O)C6O)NC(=O)C(C(O)C6CNC(=N)N6)NC5=O)cc4)C(O)C3O)C(O)C(O)C2O)cc1F (centres unmarked) and print it.
16 µg/mL

Please list MIC Enterococcus faecalis (GC 4552) recorded for the compound Cc1ccc(COCC2OC(OC3C(CO)OC(Oc4ccc(CC5NC(=O)C(C(C)c6ccccc6)NC(=O)CNC(=O)C(CO)NC(=O)C(C(O)C6CNC(=N)N6C6OC(CO)C(O)C(O)C6O)NC(=O)C(C(O)C6CNC(=N)N6)NC5=O)cc4)C(O)C3O)C(O)C(O)C2O)cc1 (centres unmarked)
8 µg/mL

// Input: CCCC(CCC)C(=O)OCC1OC(Oc2ccc(CC3NC(=O)C(C(C)c4ccccc4)NC(=O)CNC(=O)C(CO)NC(=O)C(C(O)C4CNC(=N)N4C4OC(CO)C(O)C(O)C4O)NC(=O)C(C(O)C4CNC(=N)N4)NC3=O)cc2)C(O)C(O)C1OC1OC(CO)C(O)C(O)C1O (centres unmarked) [Example 99b] . Output its MIC Enterococcus faecalis (GC 4552) only.
32 µg/mL

Answer with reported MIC Enterococcus faecalis (GC 4552) of COc1ccc2cc(COCC3OC(OC4C(CO)OC(Oc5ccc(CC6NC(=O)C(C(C)c7ccccc7)NC(=O)CNC(=O)C(CO)NC(=O)C(C(O)C7CNC(=N)N7C7OC(CO)C(O)C(O)C7O)NC(=O)C(C(O)C7CNC(=N)N7)NC6=O)cc5)C(O)C4O)C(O)C(O)C3O)ccc2c1 (centres unmarked)
8 µg/mL

Complete the entry with MIC Enterococcus faecalis (GC 4552) for CC(c1ccc(F)cc1)C1NC(=O)CNC(=O)C(CO)NC(=O)C(C(O)C2CNC(=N)N2C2OC(CO)C(O)C(O)C2O)NC(=O)C(C(O)C2CNC(=N)N2)NC(=O)C(Cc2ccc(OC3OC(CO)C(OC4OC(CO)C(O)C(O)C4O)C(O)C3O)cc2)NC1=O (centres unmarked) [Example 261a]
>64 µg/mL

###

Provide the reported MIC Enterococcus faecalis (GC 2691) of each item.
# Tested on: Enterococcus sp.
# assay-notes: in vitro antibacterial evaluation, MIC by broth dilution
# Format: cell-based
# study-conditions: Enterococcus faecalis (GC 2691); broth dilution, 18 hours at 35° C.
Just the number in µg/mL, nothing appended.

Hello, please tell me recorded MIC Enterococcus faecalis (GC 2691) for this one: CSc1ccc(C2OCC3OC(OC4C(CO)OC(Oc5ccc(CC6NC(=O)C(C(C)c7ccccc7)NC(=O)CNC(=O)C(CO)NC(=O)C(C(O)C7CNC(=N)N7C7OC(CO)C(O)C(O)C7O)NC(=O)C(C(O)C7CNC(=N)N7)NC6=O)cc5)C(O)C4O)C(O)C(O)C3O2)cc1 (centres unmarked)
2

Please report MIC Enterococcus faecalis (GC 2691) for the following compound: CCOc1cc(C2OCC3OC(OC4C(CO)OC(Oc5ccc(CC6NC(=O)C(C(C)c7ccccc7)NC(=O)CNC(=O)C(CO)NC(=O)C(C(O)C7CNC(=N)N7C7OC(CO)C(O)C(O)C7O)NC(=O)C(C(O)C7CNC(=N)N7)NC6=O)cc5)C(O)C4O)C(O)C(O)C3O2)ccc1OC (centres unmarked)
32

Give the value of MIC Enterococcus faecalis (GC 2691) reported for the following: CC(c1ccccc1)C1NC(=O)CNC(=O)C(CO)NC(=O)C(C(O)C2CNC(=N)N2C2OC(CO)C(O)C(O)C2O)NC(=O)C(C(O)C2CNC(=N)N2)NC(=O)C(Cc2ccc(OC3OC(CO)C(OC4OC5COC(c6cccs6)OC5C(O)C4O)C(O)C3O)cc2)NC1=O (centres unmarked)
8

Indicate its recorded MIC Enterococcus faecalis (GC 2691); the compound in question is CC(C)=CCCC1OCC2OC(OC3C(CO)OC(Oc4ccc(CC5NC(=O)C(C(C)c6ccccc6)NC(=O)CNC(=O)C(CO)NC(=O)C(C(O)C6CNC(=N)N6C6OC(CO)C(O)C(O)C6O)NC(=O)C(C(O)C6CNC(=N)N6)NC5=O)cc4)C(O)C3O)C(O)C(O)C2O1 (centres unmarked)
16

Provide measured MIC Enterococcus faecalis (GC 2691) value, entry: CC(c1ccccc1)C1NC(=O)CNC(=O)C(CO)NC(=O)C(C(O)C2CNC(=N)N2C2OC(CO)C(O)C(O)C2O)NC(=O)C(C(O)C2CNC(=N)N2)NC(=O)C(Cc2ccc(OC3OC(CO)C(OC4OC5COC(Cc6ccc(Cl)cc6)OC5C(O)C4O)C(O)C3O)cc2)NC1=O (centres unmarked)
1

Determine its reported MIC Enterococcus faecalis (GC 2691): CC(c1ccccc1)C1NC(=O)CNC(=O)C(CO)NC(=O)C(C(O)C2CNC(=N)N2C2OC(CO)C(O)C(O)C2O)NC(=O)C(C(O)C2CNC(=N)N2)NC(=O)C(Cc2ccc(OC3OC(CO)C(OC4OC5COC(CC6CCN(C(=O)OCc7ccccc7)CC6)OC5C(O)C4O)C(O)C3O)cc2)NC1=O (centres unmarked)
4

For the compound CC(c1ccccc1)C1NC(=O)CNC(=O)C(CO)NC(=O)C(C(O)C2CNC(=N)N2C2OC(CO)C(O)C(O)C2O)NC(=O)C(C(O)C2CNC(=N)N2)NC(=O)C(Cc2ccc(OC3OC(CO)C(OC4OC5COC(Cc6ccc(F)cc6)OC5C(O)C4O)C(O)C3O)cc2)NC1=O (centres unmarked) , give its reported MIC Enterococcus faecalis (GC 2691).
4

Quickly give me recorded MIC Enterococcus faecalis (GC 2691) for CC(c1ccccc1)C1NC(=O)CNC(=O)C(CO)NC(=O)C(C(O)C2CNC(=N)N2C2OC(CO)C(O)C(O)C2O)NC(=O)C(C(O)C2CNC(=N)N2)NC(=O)C(Cc2ccc(OC3OC(CO)C(OC4OC5COC(c6ccsc6)OC5C(O)C4O)C(O)C3O)cc2)NC1=O (centres unmarked)
8

Please supply the value of reported MIC Enterococcus faecalis (GC 2691) for the item CC(c1ccccc1)C1NC(=O)CNC(=O)C(CO)NC(=O)C(C(O)C2CNC(=N)N2C2OC(CO)C(O)C(O)C2O)NC(=O)C(C(O)C2CNC(=NC(=O)C(C)(C)C)N2)NC(=O)C(Cc2ccc(OC3OC(CO)C(OC4OC(CO)C(O)C(O)C4O)C(O)C3O)cc2)NC1=O (centres unmarked)
0.5

Write down MIC Enterococcus faecalis (GC 2691) measured for item CC(c1ccccc1)C1NC(=O)CNC(=O)C(CO)NC(=O)C(C(O)C2CNC(=N)N2C2OC(CO)C(O)C(O)C2O)NC(=O)C(C(O)C2CNC(=N)N2)NC(=O)C(Cc2ccc(OC3OC(CO)C(OC4OC5COC(c6ccc(C(C)(C)C)cc6)OC5C(O)C4O)C(O)C3O)cc2)NC1=O (centres unmarked)
0.5

Quote MIC Enterococcus faecalis (GC 2691) reported for CC(c1ccccc1)C1NC(=O)CNC(=O)C(CO)NC(=O)C(C(O)C2CNC(=N)N2C2OC(CO)C(O)C(O)C2O)NC(=O)C(C(O)C2CNC(=N)N2)NC(=O)C(Cc2ccc(OC3OC(CO)C(OC4OC5COC(CC6CCCCC6)OC5C(O)C4O)C(O)C3O)cc2)NC1=O (centres unmarked) please.
2

Specify MIC Enterococcus faecalis (GC 2691) for CC(c1ccccc1)C1NC(=O)CNC(=O)C(CO)NC(=O)C(C(O)C2CNC(=N)N2C2OC(CO)C(O)C(O)C2O)NC(=O)C(C(O)C2CNC(=N)N2)NC(=O)C(Cc2ccc(OC3OC(CO)C(OC4OC5COC(c6ccc7ccccc7c6)OC5C(O)C4O)C(O)C3O)cc2)NC1=O (centres unmarked) and stop.
1

Recall and state the measured MIC Enterococcus faecalis (GC 2691) for CC(C)=CCCC(C)C1OCC2OC(OC3C(CO)OC(Oc4ccc(CC5NC(=O)C(C(C)c6ccccc6)NC(=O)CNC(=O)C(CO)NC(=O)C(C(O)C6CNC(=N)N6C6OC(CO)C(O)C(O)C6O)NC(=O)C(C(O)C6CNC(=N)N6)NC5=O)cc4)C(O)C3O)C(O)C(O)C2O1 (centres unmarked) .
32
